# Tested on: caspase 3/7
# testDescription: Caspase-Glo 3/7 Assay in iFECD stimulated with TGF-β2
# Format: cell-based, human
# assaySetup: 0.1 μM, TGF-β2 10 ng/ml, Dunnett-t test, n=5
propertyLabel: activity of caspase 3/7 compared to control

- Oc1cccc(-c2nc(N3CCOCC3)c3oc4ncccc4c3n2)c1 [PI-103]: significantly suppressed
- CO[C@H]1CC[C@H](N2C(=O)CNc3ncc(-c4ccc(C(C)(C)O)nc4)nc32)CC1 [CC-223]: significantly suppressed
- CO[C@H]1C[C@@H]2CC[C@@H](C)[C@@](O)(O2)C(=O)C(=O)N2CCCC[C@H]2C(=O)O[C@H]([C@H](C)C[C@@H]2CC[C@@H](OC(=O)C(C)(CO)CO)[C@H](OC)C2)CC(=O)[C@H](C)/C=C(\C)[C@@H](O)[C@@H](OC)C(=O)[C@H](C)C[C@H](C)/C=C/C=C/C=C/1C [temsirolimus, Temsirolimus]: significantly suppressed
- CO[C@H]1C[C@@H]2CC[C@@H](C)[C@@](O)(O2)C(=O)C(=O)N2CCCC[C@H]2C(=O)O[C@H]([C@H](C)C[C@@H]2CC[C@@H](OCCO)[C@H](OC)C2)CC(=O)[C@H](C)/C=C(\C)[C@@H](O)[C@@H](OC)C(=O)[C@H](C)C[C@H](C)/C=C/C=C/C=C/1C [everolimus, Everolimus]: significantly suppressed
- CC(C)n1nc(-c2ccc3oc(N)nc3c2)c2c(N)ncnc21 [INK128]: significantly suppressed
- COc1ccc(-c2ccc3c(N4CCOC[C@@H]4C)nc(N4CCOC[C@@H]4C)nc3n2)cc1CO [AZD8055]: significantly suppressed
- COc1ccc(-c2ccc3c(N4CCOCC4)nc(N4C[C@@H](C)O[C@@H](C)C4)nc3n2)cc1CO [KU 0063794]: significantly suppressed

###

# System: caspase 3/7
# testDescription: Caspase-Glo 3/7 Assay in iFECD stimulated with TGF-β2
# Type: cell-based, human
# assaySetup: 0.001 μM, TGF-β2 10 ng/ml, Dunnett-t test, n=5
propertyLabel: activity of caspase 3/7 compared to control

* Oc1cccc(-c2nc(N3CCOCC3)c3oc4ncccc4c3n2)c1 [PI-103] | significantly suppressed
* CC(C)n1nc(-c2ccc3oc(N)nc3c2)c2c(N)ncnc21 [INK128] | significantly suppressed
* CO[C@H]1C[C@@H]2CC[C@@H](C)[C@@](O)(O2)C(=O)C(=O)N2CCCC[C@H]2C(=O)O[C@H]([C@H](C)C[C@@H]2CC[C@@H](OCCO)[C@H](OC)C2)CC(=O)[C@H](C)/C=C(\C)[C@@H](O)[C@@H](OC)C(=O)[C@H](C)C[C@H](C)/C=C/C=C/C=C/1C [everolimus, Everolimus] | significantly suppressed
* CO[C@H]1CC[C@H](N2C(=O)CNc3ncc(-c4ccc(C(C)(C)O)nc4)nc32)CC1 [CC-223] | significantly suppressed
* CO[C@H]1C[C@@H]2CC[C@@H](C)[C@@](O)(O2)C(=O)C(=O)N2CCCC[C@H]2C(=O)O[C@H]([C@H](C)C[C@@H]2CC[C@@H](OC(=O)C(C)(CO)CO)[C@H](OC)C2)CC(=O)[C@H](C)/C=C(\C)[C@@H](O)[C@@H](OC)C(=O)[C@H](C)C[C@H](C)/C=C/C=C/C=C/1C [temsirolimus, Temsirolimus] | significantly suppressed
